- System: 422866-222-R5-J1-PDC spheroid viability
- test name: Anticancer human tumor 422866-222-R5-J1-PDC patient-derived pancreatic adenocarcinoma cell line growth inhibition [CLK]; active means viability on the fitted dose curve at most 10% of control; inactive means the rest
- stated conditions: second compound 0.1 µM; first compound 0.00949 µM; spheroids with HUVEC and MSC
# output must be one of active, inactive

Worked examples follow.
- compound: "C=CC(=O)Nc1cc(Nc2nccc(-c3cn(C)c4ccccc34)n2)c(OC)cc1N(C)CCN(C)C + CNC(=O)c1ccc(Nc2nc(OC3CCCC3)c3c(-c4ccc5nc(C)oc5c4)c[nH]c3n2)c(OC)c1"
  category: "inactive"
- compound: "NC(=O)C(=Cn1cnc(-c2cc(C(F)(F)F)cc(C(F)(F)F)c2)n1)c1cncnc1 + CN1CCN(c2cc(C(=O)Nc3cc4cc(-c5cnn(C)c5)ccc4cn3)ccn2)CC1"
  category: "inactive"
- compound: "NC(=O)C(=Cn1cnc(-c2cc(C(F)(F)F)cc(C(F)(F)F)c2)n1)c1cncnc1 + CNC(=O)c1ccc(Nc2nc(OC3CCCC3)c3c(-c4ccc5nc(C)oc5c4)c[nH]c3n2)c(OC)c1"
  category: "inactive"
- compound: "CC(C)CC(NC(=O)C(Cc1ccccc1)NC(=O)c1cnccn1)B(O)O (stereo unspecified) + CN1CCN(c2cc(C(=O)Nc3cc4cc(-c5cnn(C)c5)ccc4cn3)ccn2)CC1"
  category: "active"
- compound: "CC(C)CC(NC(=O)C(Cc1ccccc1)NC(=O)c1cnccn1)B(O)O (stereo unspecified) + CNC(=O)c1ccc(Nc2nc(OC3CCCC3)c3c(-c4ccc5nc(C)oc5c4)c[nH]c3n2)c(OC)c1"
  category: "inactive"

Turning now to a further compound:
Query string: Each compound tested received a call. Report the one for C=CC(=O)Nc1cc(Nc2nccc(-c3cn(C)c4ccccc34)n2)c(OC)cc1N(C)CCN(C)C + CN1CCN(c2cc(C(=O)Nc3cc4cc(-c5cnn(C)c5)ccc4cn3)ccn2)CC1 .
Result string: inactive

* * *

- Tested on: 422866-222-R5-J1-PDC spheroid viability
- test name: Anticancer human tumor 422866-222-R5-J1-PDC cell line growth inhibition [CLK];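 further: spheroids exposed to agents for seven days before readout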
- stated conditions: second compound 1 µM; first compound 10 µM; active compounds read low; spheroids with HUVEC and MSC
- Source text: A high-throughput screen of multi-cell type tumor spheroids was designed to identify active combinations of […] and targeted small molecules. Complex spheroids include a stromal component modeled by human endothelial cells (HUVEC) and fibroblasts modeled by human mesenchymal stem cells (MSCs). […] Compounds. […] If the clinical Cmax for an agent had not been determined, the highest concentration tested was 10 microM. […]
readout label: viability, T/C

- molecule: "CC(=O)O[C@H]1C(=O)[C@@]2(C)[C@H]([C@H](OC(=O)c3ccccc3)[C@]3(O)C[C@H](OC(=O)[C@H](O)[C@@H](NC(=O)c4ccccc4)c4ccccc4)C(C)=C1C3(C)C)[C@]1(OC(C)=O)CO[C@@H]1C[C@@H]2O + CN1CCN(c2cc(C(=O)Nc3cc4cc(-c5cnn(C)c5)ccc4cn3)ccn2)CC1"
  viability, T/C: "16.4%"
- molecule: "C=CC(=O)N1CCN(c2nc(=O)n(-c3c(C)ccnc3C(C)C)c3nc(-c4c(O)cccc4F)c(F)cc23)C(C)C1 (centres undefined) + CN1CCN(c2cc(C(=O)Nc3cc4cc(-c5cnn(C)c5)ccc4cn3)ccn2)CC1"
  viability, T/C: "8.28%"
- molecule: "COc1ccc([C@@H](O)c2cc(-c3ncnc4cc(N5CCOCC5)ccc34)c(F)cc2Cl)nn1 + CN1CCN(c2cc(C(=O)Nc3cc4cc(-c5cnn(C)c5)ccc4cn3)ccn2)CC1"
  viability, T/C: "19.1%"

Shifting focus to the molecule that follows.
Query string: Fill in viability, T/C for record C=CC(=O)N1CCN(c2nc(=O)n(-c3c(C)ccnc3C(C)C)c3nc(-c4c(O)cccc4F)c(F)cc23)C(C)C1 (centres undefined) + CNC(=O)c1ccc(Nc2nc(OC3CCCC3)c3c(-c4ccc5nc(C)oc5c4)c[nH]c3n2)c(OC)c1
Result string: 27.7%
